Consider the following compounds and their measured ED (2 x ED95) readings.
- System: Male New Zealand white rabbits
- assay-protocol: Muscle relaxation test in anesthetized rabbits with neuromuscular transmission monitor (TOF)
- Format: in vivo, rabbit
- reported-conditions: Oryctolagus cuniculus, iv, intravenous injection, propofol general anesthesia
- Protocol: Male New Zealand white rabbits weighing 2-3.5 kg were used as experimental animals for muscle relaxation test. The specific procedures were as follows: propofol emulsion was used to induce and maintain general anesthesia (induction dose: 10 mg/kg; maintenance dose: […]). Tracheal intubation was carried out and respiratory support was used.
Reply with just the number (in mg/kg).

Below, 3 compounds whose answers are already recorded.
# compound, display-unit, ED (2 x ED95)
data = [
    ("C[N+](C)(C)CCOC(=O)CCC(=O)OCC[N+](C)(C)C [Succinylcholine, reference compound]", "mg/kg", 1.8),
    ("CC(C[N+](C)(Cc1ccccc1)Cc1ccc([N+](=O)[O-])cc1)OC(=O)OCOC(=O)CCC[N+]1(Cc2ccc([N+](=O)[O-])cc2)CCCCC1 (stereo not shown)", "mg/kg", 1.2),
    ("COc1ccc(C[N+](C)(CCCC(C)OC(=O)OC(C)OC(=O)C[N+]2(Cc3ccc(OC)c(OC)c3)CCCCC2)Cc2ccc(OC)c(OC)c2)cc1OC (stereo not shown)", "mg/kg", 1.4),
]

Proceed to the following item.
Task: If you can, please state the reported ED (2 x ED95) value of COc1ccc(C[N+](C)(Cc2ccc(OC)c(OC)c2)CC(C)OC(=O)OC(C)OC(=O)CCC[N+]2(Cc3ccc(OC)c(OC)c3)CCCCC2)cc1OC (stereo not shown) .
Output: 1.2
